Recorded values, source the Bradley open melting point set (2014).

MEASURED_QUANTITY: melting point

The cases that follow already have their melting point on record.
• COc1cc(N)c(Cl)cc1C(=O)NC1CCN(Cc2ccccc2)CC1 [clebopride] = 194 °C
• C1=C(c2ccccc2)Cc2ccccc21 = 167 °C
• Clc1cccc(I)c1Cl = 35 °C
• CCc1ccc(O)cc1 [4-Ethylphenol] = 43.5 °C

Return reported melting point values for all items listed beneath this line.
1. C[C@H]1CCCC[C@@H]1C (relative stereo) [trans-1,2-dimethylcyclohexane]
2. CC(=O)Oc1ccc2c3c1O[C@H]1[C@@H](OC(C)=O)C=C[C@H]4[C@@H](C2)N(C)CC[C@@]341
3. c1ccc2c(c1)ccc1ccccc12 [phenanthrene]
4. O=[N+]([O-])c1ccc(Br)cc1
5. Nc1ccc(C(=O)O)cc1 [4-Aminobenzoic Acid]
6. O=C1NC(=O)C(c2ccccc2)(c2ccccc2)N1
7. CCc1cccc(CC)c1NC(=O)CCl [2-chloro-2',6'-diethylacetanilide]
8. COc1ccc(C(C)(C)C)cc1B(O)O

Response:
-88 °C
173 °C
100 °C
126 °C
188 °C
286 °C
130 °C
105 °C

Return reported melting point values for all items listed beneath this line.
1. NS(=O)(=O)c1c(F)cccc1F [2,6-difluorobenzenesulfonamide]
2. CCc1cccc(C)c1

Response:
190 °C
-96 °C

Return reported melting point values for all items listed beneath this line.
1. COc1ccc(N)cc1
2. CC(O)CO (stereo not given) [1,2-propanediol]
3. Cc1ccc(C)o1
4. C=C(Br)CC1(C(C)C)C(=O)NC(=O)NC1=O

Response:
1. 59 °C
2. -60 °C
3. -62 °C
4. 177 °C

Return reported melting point values for all items listed beneath this line.
1. N#Cc1ccc(F)cc1[N+](=O)[O-]
2. O=c1c(O)c(-c2ccc(O)cc2)oc2ccccc12 [3,4'-dihydroxyflavone]
3. COC(=O)CCC(C)C1CCC2C3C(OC(C)=O)C(Br)C4CCCCC4(C)C3CCC12C (stereo not given) [methyl 7-(acetyloxy)-6-bromocholan-24-oate]
4. O=[N+]([O-])c1cc([N+](=O)[O-])c2ccccc2c1O

Response:
1. 71 °C
2. 286 °C
3. 159 °C
4. 132 °C

###

MEASURED_QUANTITY: melting point
Provide the measurement as a number trailed by its unit.

The cases that follow already have their melting point on record.
• CC(C(=O)O)c1cccc(C(=O)c2ccccc2)c1 (stereo not drawn) [(+/+)-ketoprofen] = 93.9 °C
• Nc1cc(Cl)ccc1O [5-chloro-2-hydroxyaniline] = 143 °C
• CC(C)(S)[C@@H](N)C(=O)O [penicillamine] = 204 °C
• NC(=S)c1ccccn1 [pyridine-2-thiocarboxamide] = 123 °C
• Nc1nc(N)c2nc(-c3ccccc3)c(N)nc2n1 [Triamterene] = 306 °C

Return reported melting point values for all items listed beneath this line.
1. O=C(Oc1ccc([N+](=O)[O-])cc1)c1ccccc1 [4-nitrophenyl benzoate]
2. OB(O)c1c(C(F)(F)F)cccc1C(F)(F)F [2,6-bis(trifluoromethyl)benzeneboronic acid]
3. O=C(O)CCc1ccc(C(=O)O)cc1 [3-(4-carboxyphenyl)propionic acid]
4. C/C(OC/C(=N/NC(N)=O)c1ccccc1)=C(\C#N)c1ccccc1
5. Cc1ccc(N)cc1F [3-fluoro-4-methylaniline]

Response:
1. 143 °C
2. 150 °C
3. 290 °C
4. 157 °C
5. 33 °C

###

MEASURED_QUANTITY: melting point (°C)
Give bare numbers, in °C.

* Oc1ccc(OCc2ccccc2)nc1 [2-benzyloxy-5-hydroxypyridine] | 92
* Cc1ccc(S(=O)(=O)CC(=O)O)cc1 [p-toluenesulfonylacetic acid] | 118
* c1ccc(CCc2ccccc2)cc1 [bibenzyl] | 55

Return reported melting point values for all items listed beneath this line.
1. O=[N+]([O-])c1ccc(-c2nnc3sc(/C=C/c4ccccc4)nn23)cc1
2. COc1ccc(C(C)=CC(=O)O)c(OC)c1 [Hepadial]
3. O=C(O)COC(=O)Cc1ccccc1Nc1c(Cl)cccc1Cl [aceclofenac]

Response:
113
149
149

###

Assignment: determine reported melting point for the given compounds.
Numbers only, in °C.

• Cc1cc2cc(Cl)ccc2[nH]1 [5-chloro-2-methylindole] = 112
• COC(=O)c1ccc(I)cc1 [methyl 4-iodobenzoate] = 115
• O=C(O)CCC(=O)C(=O)O [2-oxopentanedioic acid] = 116
• OB(O)c1c(F)c(F)cc(F)c1F [2,3,5,6-tetrafluorobenzeneboronic acid] = 143

Return reported melting point values for all items listed beneath this line.
1. c1ccc(-c2csc(-c3ccccn3)n2)cc1 [4-phenyl-2-(2-pyridyl)thiazole]
2. Cc1cc(C)c(NC(=O)CN(CC(=O)O)CC(=O)O)c(C)c1Br

Response:
[57, 194]

###

Assignment: determine reported melting point for the given compounds.
Answers are plain numbers, in °C.

The cases that follow already have their melting point on record.
• O=C(Oc1ccccc1)Oc1ccccc1 [diphenyl carbonate] = 79
• CC(=O)C1C(=O)C=C(C)OC1=O (stereo not given) [dehydroacetic acid] = 111
• O=[N+]([O-])c1ccc(Cl)cc1Cl [2,4-dichloronitrobenzene] = 31

Return reported melting point values for all items listed beneath this line.
1. CC12CCC(=O)CC1CCC1C2CCC2(C)C1CCC2(O)CCc1ccccc1 (stereo not given) [17-hydroxy-21-phenylpregnan-3-one]
2. O=c1[nH]c(=O)n([C@H]2C[C@H](O)[C@@H](CO)O2)cc1I [Idoxuridine]

Response:
1. 177
2. 165

Return reported melting point values for all items listed beneath this line.
1. Clc1ccc(C(Cn2ccnc2)OCc2csc3c(Cl)cccc23)c(Cl)c1 (stereo not given) [sertaconazole]
2. CCCC(C)=O [2-pentanone]
3. CCC1(c2ccccc2)C(=O)NCNC1=O [Primidone]
4. O=C(Oc1cccc(OC(=O)c2ccccc2)c1)c1ccccc1 [1,3-dibenzoyloxybenzene]
5. O=C(O)CCN1C(=O)c2ccccc2C1=O [3-phthalimidopropionic acid]
6. Clc1ccccc1C(c1ccccc1)(c1ccccc1)n1ccnc1 [clotrimazole]

Response:
1. 146
2. -78
3. 282
4. 118
5. 152
6. 147

Return reported melting point values for all items listed beneath this line.
1. C#CC1(O)CCCCC1 [1-ethynylcyclohexanol]
2. NNC(=O)c1ccc(C(F)(F)F)cc1 [4-(trifluoromethyl)benzhydrazide]
3. CC(C)(C)OC(=O)N1CCS[C@@H]1C(=O)O [(R)-3-boc-thiazolidine-2-carboxylic acid]
4. O=[N+]([O-])c1ncccc1Br [3-bromo-2-nitropyridine]
5. CP(C)(C)=S [trimethylphosphine sulfide]

Response:
32
119
92
104
156

Return reported melting point values for all items listed beneath this line.
1. CCCCP(=O)(CCCC)CCCC [tri-n-butylphosphine oxide]
2. CC(=O)c1ccccn1 [2-acetylpyridine]
3. CC(=O)CCc1ccc(CCC(C)=O)cc1 [4,4'-benzene-1,4-diyldibutan-2-one]
4. Nc1cccc([N+](=O)[O-])c1 [m-nitroaniline]

Response:
1. 67
2. 9
3. 56
4. 114

###

Assignment: determine reported melting point for the given compounds.
Give bare numbers, in °C.

• OC[C@@H](O)[C@@H](O)[C@H](O)[C@@H](O)CO = 99
• CCN(CC)c1ccc(N=O)cc1 = 82
• C=C(C)C(=O)OCC [Ethyl methacrylate] = -75

Return reported melting point values for all items listed beneath this line.
1. CC(C)(C)OC(=O)N[C@](C)(C(=O)O)c1ccc2ccccc2c1
2. CCC(C)=O

Response:
1. 98
2. -86

###

MEASURED_QUANTITY: melting point
Provide the measurement as a number trailed by its unit.

- COc1ccc2c(c1)no[n+]2[O-] [5-Methoxybenzofurazan, 1-oxide]: 118 °C
- CC(=O)C(=O)O [Pyruvic acid]: 11.8 °C
- CC(=O)c1ccc([N+](=O)[O-])cc1 [p-nitroacetophenone]: 80 °C

Return reported melting point values for all items listed beneath this line.
1. CCCCC(=O)O [N-Valeric Acid]
2. COc1c(Cl)cccc1Cl [2,6-dichloroanisole]
3. O=C1Cc2ccccc2C(=O)O1 [homophthalic anhydride]
4. O=C(CCl)c1ccc(O)c(O)c1 [2-chloro-3',4'-dihydroxyacetophenone]
5. N#Cc1cc(Cl)cc(Cl)c1 [3,5-dichlorobenzonitrile]
6. C=C(C)C(=O)O [methacrylic acid]
7. CC(O)CO (stereo unspecified) [Propylene glycol]

Response:
1. -34 °C
2. 10 °C
3. 142 °C
4. 174 °C
5. 66 °C
6. 16 °C
7. -60 °C

Request: I have this compound here, C[C@@H]1CN[C@@H](C)CN1 [trans-2,5-dimethylpiperazine] , and I need its recorded melting point.
Response: 117 °C

###

Where a name gives a salt, the structure may show the parent alone.
Tick true if melting point is 100 °C or greater. Tick false if melting point is less than 100 °C.

- Nc1ccc(C(=O)O)cc1 [4-Aminobenzoic acid]: true
- Clc1c2ccccc2cc2ccccc12 [9-Chloroanthracene]: true
- OB(O)c1ccc(-c2ccccc2)c(F)c1 [2-fluorobiphenyl-4-boronic acid]: true
- COc1cccc(OC)c1OCC(=O)O [2,6-dimethoxyphenoxyacetic acid]: false
- OCC(O)C(O)C(O)C(O)CO (stereo unspecified) [Mannitol]: true
- O=C(CCC(=O)c1ccccc1)c1ccccc1 [1,2-dibenzoylethane]: true
- Clc1ccc(-c2ccnc(Cl)c2)cn1 [6,2'-dichloro-3,4'-bipyridine]: true
- Nc1cc(Cl)c(O)c(Cl)c1 [4-Amino-2,6-dichlorophenol]: true
- Cc1noc(C)c1B(O)O [3,5-dimethylisoxazole-4-boronic acid]: true
- Cc1cc(C)nc(NS(=O)(=O)c2ccc(N)cc2)n1 [sulfamethazine]: true

Request: I'd appreciate it if you could say whether COc1cccc(N)c1 [m-anisidine] has melting point at least equal to 100 °C.
Response: false

Request: How about this molecule: O=C(N[C@@H](Cc1c[nH]c2ccccc12)C(=O)O)OCc1ccccc1 [N(alpha)-benzyloxycarbonyl-l-tryptophan]
Response: true

Request: How about this molecule: COC(=O)/C=C/C(=O)OC [dimethyl fumarate]
Response: true

Request: How about this molecule: CN(C)C(=O)Nc1ccc(Cl)cc1 [Monuron]
Response: true

Request: How about this molecule: CC(=O)O [acetic acid]
Response: false

Request: How about this molecule: O=C(O)c1cccc(Br)c1 [3-bromobenzoic acid]
Response: true

Request: How about this molecule: Clc1ccccc1C(c1ccccc1)(c1ccccc1)n1ccnc1 [Clotrimazole]
Response: true

Request: How about this molecule: CC12CCC(C1(C)C)C(CCCc1ccccc1)(C1(CCCc3ccccc3)C(=O)C3(C)CCC1C3(C)C)C2=O (stereo unspecified)
Response: true

Request: How about this molecule: CC(=O)c1sccc1N [2-acetyl-3-aminothiophene]
Response: false

Request: How about this molecule: c1ccc(Oc2ccccc2)cc1 [diphenyl ether]
Response: false

Request: How about this molecule: OC(CCN1CCCCC1)(c1ccccc1)c1ccccc1 [pridinol]
Response: true
